- SYSTEM TESTED: T1, human ASIC1 (human, UniProt P78348 1-528)
- T1 sequence: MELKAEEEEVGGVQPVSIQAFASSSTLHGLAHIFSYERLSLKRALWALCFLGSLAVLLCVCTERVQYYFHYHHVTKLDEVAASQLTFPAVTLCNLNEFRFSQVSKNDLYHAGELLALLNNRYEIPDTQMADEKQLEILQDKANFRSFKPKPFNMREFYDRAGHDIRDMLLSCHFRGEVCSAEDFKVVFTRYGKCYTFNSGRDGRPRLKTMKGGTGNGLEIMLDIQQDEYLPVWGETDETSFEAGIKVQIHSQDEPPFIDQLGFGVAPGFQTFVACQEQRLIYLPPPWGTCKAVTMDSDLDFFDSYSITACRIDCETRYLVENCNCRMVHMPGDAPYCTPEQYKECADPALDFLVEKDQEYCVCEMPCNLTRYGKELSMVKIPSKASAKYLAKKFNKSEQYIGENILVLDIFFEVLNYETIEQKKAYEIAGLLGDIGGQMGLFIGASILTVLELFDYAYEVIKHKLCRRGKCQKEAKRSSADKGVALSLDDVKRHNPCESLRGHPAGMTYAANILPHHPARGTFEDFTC
- PROCEDURE SUMMARY: cell-based or functional assay
PARAMETER MEASURED: FLIPR Dose Curve, pH 5.5 % Block (%)
One number for each entry, in %.

Check out these entries, answers already filled in.
BINDER	RESULT
H3M6760N (antibody, V domains shown, Chimeric: human variable, mouse constant domains; H3M prefix marks the Fc, isotype not spelled out) VH: EDRVLESGGGLVQPGGSLRLSCAASGFMFSSYAMSWVRQAPGKGLEWVSLISGRDGNTYYADSVKGRFTISRDNSRNTLYLQLNSLRAEDTAVYYCAKDTAVVPGYGMDVWGQGTTVTVSS VL: DIQMTQSPSTLSASVGDRVTITCRASQSISNWLAWYQQRPGKAPKLLIYKASSLESGVPSRFSGSGSGTEFTLTISSLQPDDFASYYCQQYNSYSWTFGQGTKVEIK	71
H3M6715N (antibody, V domains shown, Chimeric: human variable, mouse constant domains; H3M prefix marks the Fc, isotype not spelled out) VH: EELVLESGGGLVQPGGSLRLSCAASGFMFSTYAMSWVRQAPGKGLEWVSLISGRDGNTYYADSVKGRFTISRDNSRNTLYLQLNSLRAEDTALYYCAKDTAVVPGYGMDVWGQGTTVTVSS VL: DIQMTQSPATLSASVGDRVTITCRASQTISNWLAWYQQRPGKAPKLLIYKASSLETGVPSRFSGSGSGTEFTLTISSLQPDDFASYYCQQYNSYSWTFGQGTKVEIK	39
H1M6718N (antibody, mouse IgG1, V domains shown) VH: EVQLLESGGGLVQPGGSLRLSCAASGFTFSSFAMSWVRQAPGKGLEWVSGISGSGGGTHYADSVKGRFTISRDNSKNMVYLQMNSLRAEDTAAYYCAKEAYKWQPWGQGTLVTVSS VL: DIQMTQSPSTLSASVGDRVIITCRASQRISSWLAWYQQKPGKAPNLLIYKASILESGVPSRFSGSGSGTEFTLTISSLQPDDFATYYCQQYNSYSYTFGQGTKLEIK	78

Okay, now this binder:
Task item: What measured FLIPR Dose Curve, pH 5.5 % Block goes with H3M6713N (antibody, V domains shown, Chimeric: human variable, mouse constant domains; H3M prefix marks the Fc, isotype not spelled out) VH: EELVLESGGGLVQPGGSLRLSCAASGFMFSTYAMSWVRQAPGKGLEWVSLISGRDGSTYYADSVKGRFTISRDISRNTLYLHLNSLRAEDTAVYYCAKDTAVVPGYGLDVWGQGTTVTVSS VL: DIQMTQSPATLSASVGDRVTITCRASQTISNWLAWYQQRPGKAPKLLIYKASSLETGVPSRFSGSGSGTEFTLTISSLQPDDFASYYCQQYNSYSWTFGQGTKVEIK ?
Reply: 63

Values compiled from patent US20140056907A1.
